# System: K562 SF3B1 K700E vs K562 SF3B1 WT
# PROTOCOL_TEXT: surviving fraction ratio K562 SF3B1 K700E / K562 SF3B1 WT (each relative to DMSO); higher = less selective killing of SF3B1 K700E cells
# EXPERIMENTAL_CONDITIONS: 0.5nM; 5 days
Counter-ions that a name gives are not always drawn.
ENDPOINT: surviving fraction ratio K562 SF3B1 K700E / K562 SF3B1 WT

Consider the worked cases shown below.
C[C@]1(O)C[C@@H](c2nc(-c3ccc4ccc(-c5ccccc5)nc4c3)c3c(N)nccn32)C1: 0.876
CNC(=O)c1cc(Oc2ccc(NC(=O)Nc3ccc(Cl)c(C(F)(F)F)c3)cc2)ccn1: 0.8
CCN(CC)CCNC(=O)c1c(C)[nH]c(/C=C2\C(=O)Nc3ccc(F)cc32)c1C: 1.09
C[C@@H](Oc1cc(-c2cnn(C3CCNCC3)c2)cnc1N)c1c(Cl)ccc(F)c1Cl: 0.965

## Task Which measured surviving fraction ratio K562 SF3B1 K700E / K562 SF3B1 WT belongs to COc1cccc2c1C(=O)c1c(O)c3c(c(O)c1C2=O)C[C@@](O)(C(=O)CO)C[C@@H]3O[C@H]1C[C@H](N)[C@H](O)[C@H](C)O1 [doxorubicin.HCl] , tested on K562 SF3B1 K700E vs K562 SF3B1 WT?
## Result 0.974

## Task What surviving fraction ratio K562 SF3B1 K700E / K562 SF3B1 WT appears in the records for this molecule with K562 SF3B1 K700E vs K562 SF3B1 WT? Cn1cc(C2=Nc3cc(NC(=O)C(N)C4CCCCC4)cc4c3C2=CNNC4=O)cn1 (stereo not given)
## Result 0.884

* * *

# System: K562 SF3B1 K700E vs K562 SF3B1 WT
# PROTOCOL_TEXT: surviving fraction ratio K562 SF3B1 K700E / K562 SF3B1 WT (each relative to DMSO); higher = less selective killing of SF3B1 K700E cells
# EXPERIMENTAL_CONDITIONS: 100nM; 5 days
ENDPOINT: surviving fraction ratio K562 SF3B1 K700E / K562 SF3B1 WT
Answer with the value's number alone.

Consider the reported surviving fraction ratio K562 SF3B1 K700E / K562 SF3B1 WT for these compounds:
COc1ccc(C2=N[C@@H](c3ccc(Cl)cc3)[C@@H](c3ccc(Cl)cc3)N2C(=O)N2CCNC(=O)C2)c(OC(C)C)c1 [Nutlin3]: 0.781
Cn1cc(C2=Nc3cc(NC(=O)C(N)C4CCCCC4)cc4c3C2=CNNC4=O)cn1 (configuration not stated): 0.621
CC(=O)NCC(=O)N1[C@@H]2CC[C@H]1c1ccc(Nc3ncc(C(F)(F)F)c(NC4CCC4)n3)cc12: 1.05
CO[C@H]1C[C@@H]2CC[C@@H](C)[C@@](O)(O2)C(=O)C(=O)N2CCCC[C@H]2C(=O)O[C@H]([C@H](C)C[C@@H]2CC[C@@H](OCCO)[C@H](OC)C2)CC(=O)[C@H](C)/C=C(\C)[C@@H](O)[C@@H](OC)C(=O)[C@H](C)C[C@H](C)/C=C/C=C/C=C/1C [everolimus]: 0.697
CS(=O)(=O)c1ccc(C(=O)Nc2ccc(Cl)c(-c3ccccn3)c2)c(Cl)c1: 0.969

## Task // fetch K562 SF3B1 K700E vs K562 SF3B1 WT surviving fraction ratio K562 SF3B1 K700E / K562 SF3B1 WT for Nc1ncn([C@H]2C[C@H](O)[C@@H](CO)O2)c(=O)n1 [decitabine]
## Result 0.894

## Task So what surviving fraction ratio K562 SF3B1 K700E / K562 SF3B1 WT did CC1(C)CC(=O)c2c(C(F)(F)F)nn(-c3ccc(C(N)=O)c(N[C@H]4CC[C@H](OC(=O)CN)CC4)c3)c2C1 get with K562 SF3B1 K700E vs K562 SF3B1 WT?
## Result 2.16

# credit: the supplement of paper PMC10412459
